# Test system: LOX IMVI melanoma
# TEST_METHOD_NOTES: NCI-60 one-dose screen, 48 h (100 = growth as untreated, 0 = no growth, -100 = all killed)
# DETAILS: 10 µM unless noted
About 83,000 compounds went through this panel and 20% of them were active in at least one assay; those are over-represented in the sample as a whole.
Mark No for growth values under 10%, and Yes for everything at or above.

| SMILES_REPR | CAT |
| --- | --- |
| CCN(C(=O)N1CCN(c2cc3c(cc2F)c(=O)c(C(=O)O)cn3C2CC2)CC1)c1nc(-c2ccc(Cl)cc2)cs1 | No |
| CCN(CC)c1nc(SCc2ccccc2Cl)ncc1C | Yes |
| Cc1nnc(NC(=O)c2nc(S(=O)(=O)Cc3ccc(F)cc3)ncc2Cl)s1 | Yes |
| COc1cc(C(=O)n2nc(N3CCN(C)CC3)c3cc(N)ccc32)cc(OC)c1OC | Yes |
| O=C(/C=C/c1ccc(Cl)cc1)c1cccc(Nc2nc(Nc3ccccc3)nc(Nc3ccccc3)n2)c1 | Yes |
| COc1cccc(/C=C/C(=O)c2cc3c(N)c(C(=O)Nc4ccccc4)sc3nc2C)c1 | No |
| CCOC(=O)c1c(NC(=O)c2ccc(C(C)C)cc2)sc2c(CN(C)C)c(O)ccc12 | No |
| CN1CCN(c2ccc(C(=O)Nc3cccc(C#Cc4cccc5[nH]nc(N)c45)c3)cc2C(F)(F)F)CC1 | No |
| CC(C)(C)n1cc(-c2ccnc(NCCNS(=O)(=O)c3cccc4ccccc34)c2)c(-c2cccc(F)c2)n1 | No |

====

# Test system: KM12 colon
# TEST_METHOD_NOTES: NCI-60 one-dose screen, 48 h (100 = growth as untreated, 0 = no growth, -100 = all killed)
# DETAILS: 10 µM unless noted
This is part of a sample that, as a whole, favours compounds with a hit. Of some 83,000 tested, about 20% had one in any assay.
Mark criterion not met for growth values under 20%, and criterion met for everything at or above.

| MOLECULE | SYSTEM_UNDER_TEST | CAT |
| --- | --- | --- |
| O=C1CC(N2C(=O)/C(=C/C(Cl)=C\c3ccc([N+](=O)[O-])cc3)SC2=S)C(=O)N1c1ccc(Cl)cc1 (centres undefined) | KM12 colon | criterion not met |
| O=C1NCCC12CCN(c1c(Cl)cncc1-c1ccc(O)cc1)CC2 | KM12 colon | criterion met |
| COC(=O)c1cc(-c2ccc(OC)cc2)[nH]c1N/N=C/c1c(Cl)cccc1Cl | KM12 colon | criterion not met |
| CSc1nnc(-c2cnn3c2NC(c2ccccc2)C3)n1-c1ccc(C(F)(F)F)cc1 (centres undefined) | KM12 colon | criterion met |
| CN(C)CCNC(=O)c1cccc(-c2cnc3ccc(-c4ccc5c(c4)OCO5)nn23)c1 | KM12 colon | criterion not met |
| CC1=C(Nc2ccc(N3CCN(C)CC3)cc2)C(=O)c2cncnc2C1=O | KM12 colon | criterion met |
| Cc1ccc(CNc2ccc(Cl)cc2NCc2ccc(C)c(O)c2)cc1O | KM12 colon | criterion not met |
| C=C1CC[C@@H]2[C@](C)(COC(C)=O)[C@H](OC(C)=O)CC[C@@]2(C)[C@@H]1CC(Sc1ccccc1)C1=CCOC1=O (some centres undefined) | KM12 colon | criterion not met |
| CC1=C(C(=O)OC(C)C)C(c2ccc3c(c2)OCO3)NC(=S)N1 (centres undefined) | KM12 colon | criterion met |

====

# System: BT-549 breast
# TEST_METHOD_NOTES: NCI-60 one-dose screen, 48 h
# DETAILS: 10 µM unless noted
About 83,000 compounds went through this panel and 20% of them were active in at least one assay; those are over-represented in the sample as a whole. Active and inactive are the calls of the source. How the source made its calls: active means growth percent below 10; inactive means the rest.
Labels: 1.0 for active, 0.0 for inactive

| COMPOUND | CAT |
| --- | --- |
| CC1(C)c2[nH]c3ccccc3c2C[C@]2(C)[C@H]3CC=C4[C@@H]5C[C@@](C)(C(N)=O)CC[C@]5(C)CC[C@@]4(C)[C@]3(C)CC[C@@H]12 | 0.0 |
| CC(C)N1CCN(Cc2ccc3c(NNC(=O)c4ccccc4)nc4cc(F)ccc4n23)CC1 | 0.0 |
| N#CC1CCc2c(c(-c3cn[nH]c3C(F)(F)F)nc3c(F)cc4[nH]ncc4c23)C1 (stereo not given) | 1.0 |
| CCOP(=O)(OCC)c1nc(-c2ccccc2)oc1NCc1cccnc1 | 0.0 |
| O=C(Nn1c2c(sc1=NCc1ccccc1)C(=O)c1ccccc1C2=O)c1cc2ccc1CCc1ccc(cc1)CC2 | 0.0 |

====

# System: SK-MEL-28 melanoma
# TEST_METHOD_NOTES: NCI-60 one-dose screen, 48 h (100 = growth as untreated, 0 = no growth, -100 = all killed)
# DETAILS: 10 µM unless noted
# Procedure: Growth inhibition of the SK-MEL-28 human tumor cell line is measured as a screen for anti-cancer activity. Cells are grown in 96 well plates and exposed to the test compound for 48 hours. Compounds are tested at a single concentration, which is 10^-5 M for most compounds. The reported endpoint is percent growth (GI% or GIPRCNT), where numbers from 0 - 100% represent growth inhibition, and numbers from -100% - 0 represent cell death. For example, a value of 40 represents 60% growth inhibition. […]
Compounds without any hit were thinned out: in the full panel of roughly 83,000, 20% have a hit.
RECORDED_ENDPOINT: growth (%)

| COMPOUND | SYSTEM_UNDER_TEST | RECORDED_ENDPOINT | READING |
| --- | --- | --- | --- |
| Cc1ccc2c3c(c(=O)[nH]c2c1)C1(C(C#N)=C(N)O3)c2cc(Br)ccc2-c2ccc(Br)cc21 | SK-MEL-28 melanoma | growth | 48.7 |
| Cc1oc(-c2ccc(Cl)cc2)nc1/C=C/C(=O)c1ccccc1 | SK-MEL-28 melanoma | growth | 105 |
| O=C1NCCC12CCN(c1c(Cl)cncc1-c1ccc(O)cc1)CC2 | SK-MEL-28 melanoma | growth | 103 |
| O=C(Cn1c(=O)sc2ccccc21)NNS(=O)(=O)c1ccccc1[N+](=O)[O-] | SK-MEL-28 melanoma | growth | 104 |
| COC(=O)c1cc(-c2ccc(OC)cc2)[nH]c1N/N=C/c1c(Cl)cccc1Cl | SK-MEL-28 melanoma | growth | 34 |
| COc1cc(C(=O)n2nc(N3CCN(C)CC3)c3cc(N)ccc32)cc(OC)c1OC | SK-MEL-28 melanoma | growth | 65.8 |
| CNC(=O)c1c(NC(=O)c2ccc(C(F)(F)F)cc2)sc2c1CCC(=O)C2 | SK-MEL-28 melanoma | growth | 4.24 |
| O=C1C(Cl)=C(Oc2ccccc2)C(=O)c2ccccc21 | SK-MEL-28 melanoma | growth | 120 |
| COc1ccc(C(=O)Nc2ncc(Cc3cccc(Cl)c3)s2)cc1OC | SK-MEL-28 melanoma | growth | 10.9 |
| COC(C(=O)[C@@H](O)[C@@H](C)O)[C@@H]1Cc2cc3cc(O[C@H]4C[C@@H](O[C@H]5C[C@@H](O)[C@H](O)C(C)O5)[C@H](O)C(C)O4)c(C)c(O)c3c(O)c2C(=O)[C@H]1O[C@H]1C[C@@H](O[C@H]2C[C@@H](O[C@H]3C[C@@H](O)[C@H](OC)C(C)O3)[C@@H](O)C(C)O2)[C@H](O)C(C)O1 (stereo partly specified) | SK-MEL-28 melanoma | growth | -34.1 |
| CCCCC[C@@H]1Cc2cc(O)c(C(=O)O)c3c2[C@H](C[C@]2(OC[C@@H](CC(=O)[C@@](C)(CC)C(=O)OC)[C@@H]2C)O3)O1 | SK-MEL-28 melanoma | growth | 118 |
| O=C(Nc1cccnc1Nc1ccc(F)cc1)c1cn(Cc2cccc(Oc3ccccc3)c2)nn1 | SK-MEL-28 melanoma | growth | 68.7 |
| CCOC(=O)C(=Cc1cccc(Cl)c1)C(=O)OCC | SK-MEL-28 melanoma | growth | -39 |
| O=C1/C(=C\c2cn(-c3ccccc3)nc2-c2ccc(-c3cccs3)cc2)CCc2ccccc21 | SK-MEL-28 melanoma | growth | 68.8 |
| C#CCOc1cccc(Nc2ncnc3c(NC(=O)C=C)cccc23)c1 | SK-MEL-28 melanoma | growth | 52.1 |
| CCOC(=O)c1ccc2[nH]c(O)c(C(=Nc3ccc(N(C)C(=O)CN4CCN(C)CC4)cc3)c3ccccc3)c2c1 | SK-MEL-28 melanoma | growth | -11.9 |
| Fc1ccc(Nc2nc3nonc3nc2Nc2ccc(I)cc2)cc1 | SK-MEL-28 melanoma | growth | 17.1 |
| CCOC(=O)/C=C1\S/C(=N\Nc2cc(=O)[nH]c3ccc(Cl)cc23)N(c2ccccc2)C1=O | SK-MEL-28 melanoma | growth | 101 |
| Clc1ccc(Nc2nnc(COc3ccccc3)c3ccccc23)cc1 | SK-MEL-28 melanoma | growth | 4.73 |
| COc1cc(-c2csc(NC(=O)c3cc(-n4cnc(C)c4)cc(C(F)(F)F)c3)n2)cc(OC)c1OC | SK-MEL-28 melanoma | growth | 78.9 |
| CCCCCOc1ccc(C(=O)/C(Br)=C/C(=O)O)cc1 | SK-MEL-28 melanoma | growth | 87.4 |
| Cc1ccc(-c2nc3nc(-c4ccccc4)nc(N4CCNCC4)c3o2)cc1 | SK-MEL-28 melanoma | growth | -90.1 |
| CCN(CC)CCCN1C(=O)c2c(c(C)c3c(oc4cc(O)ccc43)c2C)C1=O | SK-MEL-28 melanoma | growth | -85.1 |
| N#Cc1c(N)nnn1Cc1cc(=O)oc2c1ccc1ccccc12 | SK-MEL-28 melanoma | growth | 113 |
| Nc1ncnc2c1N=C(c1ccc(Cl)cc1)CC(c1ccc3c(c1)OCO3)N2 (stereo unspecified) | SK-MEL-28 melanoma | growth | 99.8 |
| CCCCN[C@H]1CC[C@@]2(C)[C@@H](CC[C@@]3(C)[C@H]2[C@H](O)C[C@H]2/C(=C(\CCC=C(C)C)C(=O)OC)[C@@H](OC(C)=O)C[C@@]23C)[C@@H]1C | SK-MEL-28 melanoma | growth | 93.4 |
| CC12CCC3c4ccccc4CCC3(CO1)C2 (stereo unspecified) | SK-MEL-28 melanoma | growth | 99.9 |
| O=C(Cn1c(-c2ccc([N+](=O)[O-])cc2)nc2ccccc21)NNC(=O)c1cccnc1 | SK-MEL-28 melanoma | growth | 108 |
| O=C(Cn1cc(CN2CCCCCC2)nn1)Nc1ccc2c(ccn2Cc2ccccc2)c1 | SK-MEL-28 melanoma | growth | 99.9 |
| CCCCCCCCCCCCCCCC(N)c1ccccc1 (stereo unspecified) | SK-MEL-28 melanoma | growth | 85.3 |
| C=C1C(=O)O[C@H]2[C@H]1CC/C(COC(=O)NCc1ccc(Cn3c(=O)sn(CCI)c3=O)cc1)=C\CC[C@@]1(C)O[C@@H]21 | SK-MEL-28 melanoma | growth | 55.5 |
| C=CCc1c(O)c(C(=O)/C=C/c2ccc(Cl)cc2)c(OC)c2ccoc12 | SK-MEL-28 melanoma | growth | 63.5 |
| C=C(C)[C@@H]1CC[C@]2(C(=O)NCCNCCN)CC[C@]3(C)[C@H](CC[C@@H]4[C@@]5(C)C/C(=C/c6ccncc6)C(=O)C(C)(C)[C@@H]5CC[C@]43C)[C@@H]12 | SK-MEL-28 melanoma | growth | 99.2 |
| CC(C)=CCC[C@](C)(O)[C@H]1CC[C@]2(C)[C@@H]1CC[C@@H]1[C@@]3(C)Cc4nccnc4C(C)(C)[C@@H]3CC[C@]12C | SK-MEL-28 melanoma | growth | 95.6 |
| CCCCC(=O)c1ccco1 | SK-MEL-28 melanoma | growth | 103 |
| O=C(CSc1nc(-c2ccccc2)[nH]c1S(=O)(=O)c1ccccc1)NC1CC1 | SK-MEL-28 melanoma | growth | 120 |
